For each record, write down the corresponding Ki.
biological target: CTX-M-14 (Escherichia coli, UniProt Q9L5C7); construct: host or cells: E. coli; experiment: β-lactamase inhibition, Ki by enzyme kinetics (nitrocefin); type: biochemical; conditions: CTX-M-14, class A
Sequence (Q9L5C7 entry or part of it): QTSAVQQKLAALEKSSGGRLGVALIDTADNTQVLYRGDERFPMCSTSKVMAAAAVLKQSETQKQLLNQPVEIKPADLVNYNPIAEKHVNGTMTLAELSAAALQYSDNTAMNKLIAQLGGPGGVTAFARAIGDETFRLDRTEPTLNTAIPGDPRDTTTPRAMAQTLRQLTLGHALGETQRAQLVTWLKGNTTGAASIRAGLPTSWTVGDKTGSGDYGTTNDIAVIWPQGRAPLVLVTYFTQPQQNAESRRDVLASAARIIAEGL

Please state Ki for every molecule in the list that follows.
1. O=C1CC(CBr)N1OS(=O)(=O)c1ccc2ccccc2c1 (stereo not shown) [Compound 61c]
2. CC(C)c1cc(C(C)C)c(S(=O)(=O)ON2C(=O)CC2CBr)c(C(C)C)c1 (stereo not shown) [Compound 61d]
3. O=C1CC(CBr)N1OS(=O)(=O)/C=C/c1ccccc1 (stereo not shown) [Compound 61a]

> 160 µM
> 160 µM
0.149 µM

Give the reported value of Ki for this record: O=C1CC(CBr)N1OS(=O)(=O)c1cccc2ccccc12 (stereo not shown) [Compound 61b]
> 160 µM

* * *

target: Oxa-48 (Klebsiella pneumoniae); experiment: β-lactamase inhibition, Ki by enzyme kinetics (nitrocefin); settings: Oxa-48, class D
Sequence (Q6XEC0 23-265 limits assumed): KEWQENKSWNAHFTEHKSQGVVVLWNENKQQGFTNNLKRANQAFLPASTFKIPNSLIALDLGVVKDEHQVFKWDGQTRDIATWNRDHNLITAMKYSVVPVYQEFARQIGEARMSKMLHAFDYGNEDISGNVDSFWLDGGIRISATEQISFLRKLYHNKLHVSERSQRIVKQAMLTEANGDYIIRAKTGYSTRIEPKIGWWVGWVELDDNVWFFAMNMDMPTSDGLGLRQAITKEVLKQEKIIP
For each record, write down the corresponding Ki.

Observe how each entry below is paired with its result.
CC(C)c1cc(C(C)C)c(S(=O)(=O)ON2C(=O)CC2CBr)c(C(C)C)c1 (stereo not shown) [Compound 61d] : > 160 µM
O=C1CC(CBr)N1OS(=O)(=O)c1cccc2ccccc12 (stereo not shown) [Compound 61b] : 4.67 µM
O=C1CC(CBr)N1OS(=O)(=O)c1ccc2ccccc2c1 (stereo not shown) [Compound 61c] : > 160 µM

We next turn to a different molecule, shown below.
Give the reported value of Ki for this record: O=C1CC(CBr)N1OS(=O)(=O)/C=C/c1ccccc1 (stereo not shown) [Compound 61a]
1.48 µM

* * *

For each record, write down the corresponding Zone of Growth Inhibition.
system: B. Subtilis ATCC 6633; assay: Agar diffusion assay (modified Kirby-Bauer); type: cell-based; settings: 2 mM solution, 50 μL in 9.0 mm well, P unclear, V very unclear zone, * slightly misshapen zone
Give bare numbers, in mm.

Cc1ccc(S(=O)(=O)ON2C(=O)CC2CBr)cc1 (stereo not shown) [Compound 61g] : 0

Please state Zone of Growth Inhibition for every molecule in the list that follows.
1. O=C1CC(CBr)N1OS(=O)(=O)c1cccc2ccccc12 (stereo not shown) [Compound 61b]
2. CC(C)(ON=C(C(=O)NC1C(=O)N(S(=O)(=O)[O-])C1CSCCN)c1cnc(N)s1)C(=O)O.[K+] (racemic) [Compound 48]
3. O=C1CC(CBr)N1OS(=O)(=O)c1ccc([N+](=O)[O-])cc1[N+](=O)[O-] (stereo not shown) [Compound 61f]

1: 12; 2: 0; 3: 22

* * *

For each record, write down the corresponding Zone of Growth Inhibition.
test system: P. Aeruginosa K799/wt; experiment: Agar diffusion assay (modified Kirby-Bauer); type: cell-based; details: P. Aeruginosa K799/wt (wild type); 2 mM solution, 50 μL in 9.0 mm well; P unclear, V very unclear zone, * slightly misshapen zone

O=C1CC(CBr)N1OS(=O)(=O)c1cccc2ccccc12 (centres unmarked) [Compound 61b] : 0 mm
CN(C)c1cccc2c(S(=O)(=O)ON3C(=O)CC3CBr)cccc12 (centres unmarked) [Compound 61h] : 0 mm
Cc1ccc(S(=O)(=O)ON2C(=O)CC2CBr)cc1 (centres unmarked) [Compound 61g] : 0 mm

Please state Zone of Growth Inhibition for every compound in the list that follows.
1. CO/N=C(\C(=O)N[C@@H]1C(=O)N(S(=O)(=O)[O-])[C@H]1CSCCNC(=O)OC(C)(C)C)c1cnc(N)s1.[K+]
2. O=C1CC(CBr)N1OS(=O)(=O)/C=C/c1ccccc1 (centres unmarked) [Compound 61a]
3. CC(C)c1cc(C(C)C)c(S(=O)(=O)ON2C(=O)CC2CBr)c(C(C)C)c1 (centres unmarked) [Compound 61d]

["0ppt", "0 mm", "0 mm"]

Please state Zone of Growth Inhibition for every compound in the list that follows.
1. CC(C)(C)OC(=O)NCCSC[C@@H]1NC(=O)[C@H]1NC(=O)OCC1c2ccccc2-c2ccccc21
2. CC(C)(ON=C(C(=O)NC1C(=O)N(S(=O)(=O)[O-])C1CSCCN)c1cnc(N)s1)C(=O)O.[K+] (racemic)
3. O=C1CC(CBr)N1OS(=O)(=O)c1ccc([N+](=O)[O-])cc1[N+](=O)[O-] (centres unmarked) [Compound 61f]
4. O=C1CC(CBr)N1OS(=O)(=O)c1ccc2ccccc2c1 (centres unmarked) [Compound 61c]

["15P", "18P", "0 mm", "0 mm"]

Give the reported value of Zone of Growth Inhibition for this record: O=C1CC(CBr)N1OS(=O)(=O)c1ccc([N+](=O)[O-])cc1 (centres unmarked) [Compound 61e]
0 mm

* * *

For each record, write down the corresponding Zone of Growth Inhibition.
test system: S. Aureus SG511; experiment: Agar diffusion assay (modified Kirby-Bauer); assay type: cell-based; settings: 2 mM solution, 50 μL in 9.0 mm well, P unclear, V very unclear zone, * slightly misshapen zone
Numbers only, in mm.

O=C1CC(CBr)N1OS(=O)(=O)c1ccc2ccccc2c1 (stereo not shown) [Compound 61c] : 15

Please state Zone of Growth Inhibition for every compound in the list that follows.
1. O=C1CC(CBr)N1OS(=O)(=O)c1ccc([N+](=O)[O-])cc1 (stereo not shown) [Compound 61e]
2. CC(C)(ON=C(C(=O)NC1C(=O)N(S(=O)(=O)[O-])C1CSCCN)c1cnc(N)s1)C(=O)O.[K+] (racemic)

0
0

* * *

biological target: UniProt:Q9F663; test: β-lactamase inhibition, Ki by enzyme kinetics (nitrocefin); details: KPC-2, class A
Sequence (Q9F663 25-293 limits assumed): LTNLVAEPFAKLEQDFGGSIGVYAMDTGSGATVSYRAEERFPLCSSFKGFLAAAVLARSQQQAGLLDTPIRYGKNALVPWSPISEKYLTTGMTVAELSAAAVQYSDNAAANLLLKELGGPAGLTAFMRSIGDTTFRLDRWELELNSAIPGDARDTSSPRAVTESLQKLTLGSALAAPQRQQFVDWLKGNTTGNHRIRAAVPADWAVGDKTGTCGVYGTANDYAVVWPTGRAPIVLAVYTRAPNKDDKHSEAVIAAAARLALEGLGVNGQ
pKi: −log10 of the molar value.
For each record, write down the corresponding pKi.

Observe how each entry below is paired with its result.
O=C1CC(CBr)N1OS(=O)(=O)c1ccc2ccccc2c1 (stereo not shown) [Compound 61c] : < 3.80
CC(C)c1cc(C(C)C)c(S(=O)(=O)ON2C(=O)CC2CBr)c(C(C)C)c1 (stereo not shown) [Compound 61d] : < 3.80
O=C1CC(CBr)N1OS(=O)(=O)/C=C/c1ccccc1 (stereo not shown) [Compound 61a] : 4.71

We next turn to a different compound, shown below.
Give the reported value of pKi for this record: O=C1CC(CBr)N1OS(=O)(=O)c1cccc2ccccc12 (stereo not shown) [Compound 61b]
< 3.80

* * *

For each record, write down the corresponding Zone of Growth Inhibition.
tested on: M. Vaccae IMET 10670; assay: Agar diffusion assay (modified Kirby-Bauer); assay type: cell-based; settings: 2 mM solution, 50 μL in 9.0 mm well, 48 hours incubation, P unclear, V very unclear zone, * slightly misshapen zone
One number for each entry, in mm.

Observe how each entry below is paired with its result.
O=C1CC(CBr)N1OS(=O)(=O)c1ccc([N+](=O)[O-])cc1 (centres unmarked) [Compound 61e] : 0
CC(C)(ON=C(C(=O)NC1C(=O)N(S(=O)(=O)[O-])C1CSCCN)c1cnc(N)s1)C(=O)O.[K+] (racemic) : 0

We next turn to a different compound, shown below.
Give the reported value of Zone of Growth Inhibition for this record: O=C1CC(CBr)N1OS(=O)(=O)c1ccc([N+](=O)[O-])cc1[N+](=O)[O-] (centres unmarked) [Compound 61f]
28

* * *

system: B. Subtilis ATCC 6633; test: Agar diffusion assay (modified Kirby-Bauer); format: cell-based; details: 2 mM solution, 50 μL in 9.0 mm well, P unclear, V very unclear zone, * slightly misshapen zone
ENDPOINT_LABEL: Zone of Growth Inhibition

Please state Zone of Growth Inhibition for every compound in the list that follows.
1. CO/N=C(\C(=O)N[C@@H]1C(=O)N(S(=O)(=O)[O-])[C@H]1CSCCN)c1cnc(N)s1.[K+]
2. CC(C)(C)OC(=O)NCCSC[C@@H]1NC(=O)[C@H]1NC(=O)OCC1c2ccccc2-c2ccccc21
3. O=C1CC(CBr)N1OS(=O)(=O)/C=C/c1ccccc1 (stereo not drawn) [Compound 61a]

16V
13P
15* mm

* * *

For each record, write down the corresponding Zone of Growth Inhibition.
test system: S. Aureus SG511; assay: Agar diffusion assay (modified Kirby-Bauer); format: cell-based; settings: 2 mM solution, 50 μL in 9.0 mm well, P unclear, V very unclear zone, * slightly misshapen zone
Numbers only, in P.

O=C1CC(CBr)N1OS(=O)(=O)c1ccc([N+](=O)[O-])cc1[N+](=O)[O-] (stereo not shown) [Compound 61f] : 21

We next turn to a different compound, shown below.
Give the reported value of Zone of Growth Inhibition for this record: O=C1CC(CBr)N1OS(=O)(=O)c1cccc2ccccc12 (stereo not shown) [Compound 61b]
14
